Reference source: PubChem BioAssay (NCI)

# maps each entry to its TGI
System: T-47D breast
Experiment: NCI tumour cell line growth inhibition, 48 h
testReadout: TGI

| molecule | systemUnderTest | measurement |
| --- | --- | --- |
| NC(=O)c1nnc2cc(F)ccc2c1N | T-47D breast | > 100 µM |
| CC(=O)O[C@H]1CC[C@@]2(C)C(=CC[C@H]3[C@@H]4C/C(=C\c5cccc(OCCN6CCOCC6)c5)[C@H](OC(C)=O)[C@@]4(C)CC[C@@H]32)C1 | T-47D breast | 22.5 µM |
| O=C1C=C(Br)C(=O)C12CCc1ccccc12 (stereo unspecified) | T-47D breast | 50.4 µM |
| CC1(C)[C@@H](Cn2cnc3c(N)ncnc32)CC[C@@]1(C)CO | T-47D breast | > 100 µM |
| Cc1ccc(OCC2OC(n3cnc4nc(Cl)nc(Cl)c43)CC2Oc2ccc(C)cc2)cc1 (stereo unspecified) | T-47D breast | 30.7 µM |
| Cc1ccnc2[nH]c(-c3cccc(Cl)c3)cc(=O)c12 | T-47D breast | > 100 µM |
| Cn1c(=O)c(Oc2ccccc2F)cc2cnc(NC3CCOCC3)nc21 | T-47D breast | > 25 µM |
| O=[N+]([O-])c1ccc(N/N=C/c2c(O)ccc3ccccc23)nc1 | T-47D breast | > 100 µM |
| CC[C@@]1(O)C(=O)NCc2c1cc1n(c2=O)Cc2cc3c(N)cccc3nc2-1 | T-47D breast | > 19.9 µM |
| NC(=Nc1ccc(O)cc1)S(=O)(=O)O | T-47D breast | > 100 µM |
| CCOC(=O)c1[nH]c(-c2ccc(Cl)cc2)cc1-c1cccnc1 | T-47D breast | > 100 µM |
